# Tested on: Trypanosoma cruzi
# ASSAY_EXPLANATION: DNDI: Chagas in vitro
# Assay type: functional, organism-based, Tulahuen C4 (LacZ)
# EXPERIMENTAL_CONTEXT: Trypanosoma cruzi, Tulahuen C4 (LacZ)
pIC50: −log10 of the molar value.
ENDPOINT: pIC50

INSERT INTO results (compound, endpoint, result_value) VALUES
  ('CC(C)(C)OC(=O)N1CCN(C(=O)C(c2ccc(C#N)cc2)c2cccnc2)CC1 (centres undefined)', 'pIC50', 7.18);

(1) O=C(c1ccccc1)N1CCN(C(=O)C(c2ccc(Cl)cc2)c2cccnc2)CC1 (centres undefined)
(2) O=C(c1ccc(Cl)cc1)N1CCN(C(=O)C(c2ccc(Cl)cc2)c2cccnc2)CC1 (centres undefined)
Q: Sorting by pIC50 in descending order, would 1 or 2 appear first? Your answer should be the label of the entry you select.
Result: 2
(2: 7.66, 1: 7.31)

---

# ASSAY_EXPLANATION: DNDI: Solubility in 0.01M HCl at pH 2 determined by nephelometry
# Type: physicochemical
# EXPERIMENTAL_CONTEXT: 0.01 M HCl
ENDPOINT: solubility kinetic (µg/mL)

(1) O=C(C(c1ccc(Cl)cc1)c1cncnc1)N1CCN(c2ccc(C(F)(F)F)cc2)CC1 (configuration not stated)
(2) O=C(C(c1ccc(Cl)cc1)c1cncnc1)N1CCN(c2ccc(C(F)(F)F)nc2)CC1 (configuration not stated)
(3) O=C(C(c1ccc(Cl)cc1)c1cncnc1)N1CCN(c2ccc(C(F)(F)F)cn2)CC1 (configuration not stated)
Q: Can you order these entries from above by solubility kinetic? Start with the largest number and work down. Output the labels ranked as instructed.
Result: 3, 2, 1

---

# ASSAY_EXPLANATION: DNDI: Cytotoxicity against L-6 rat myoblasts from skeletal muscle
# Type: toxicity, cell-based, Muscle tissue, L6
# EXPERIMENTAL_CONTEXT: rat, L6 rat skeletal muscle myoblasts
ENDPOINT: IC50

INSERT INTO results (molecule, result_value) VALUES
  ('COCCN1CCN(C(=O)C(c2ccc(Cl)cc2)c2cccnc2)CC1 (stereo not drawn)', '> 100 µM');

Q: Which IC50 is listed for O=C(C(c1ccc(Cl)cc1)c1cncnc1)N1CCN(c2ccc(C(F)(F)F)nc2)CC1 (stereo not drawn) ?
Result: > 100 µM

Q: Which IC50 is listed for O=C(C(c1ccc(Cl)cc1)c1cccnc1)N1CCN(c2nccs2)CC1 (stereo not drawn) ?
Result: > 100 µM

---

# ASSAY_EXPLANATION: DNDI: Lipophilicity (gLogD) at pH 3
# Type: physicochemical
# EXPERIMENTAL_CONTEXT: buffer
ENDPOINT: chromatographic logD

Example entries begin here.
INSERT INTO results (molecule, endpoint, result_value) VALUES
  ('O=C(C(c1ccc(Cl)cc1)c1cccnc1)N1CCN(c2ccc(C(F)(F)F)nc2)CC1 (stereo not given)', 'chromatographic logD', 3.2),
  ('O=C(C(c1ccc(Cl)cc1)c1cncnc1)N1CCN(c2ccc(C(F)(F)F)nc2)CC1 (stereo not given)', 'chromatographic logD', 3.4),
  ('O=C(C(c1ccc(Cl)cc1)c1cccnc1)N1CCN(c2ccc(C(F)(F)F)cn2)CC1 (stereo not given)', 'chromatographic logD', 3.8);

(A) O=C(C(c1ccc(Cl)cc1)c1cncnc1)N1CCN(c2ccc(C(F)(F)F)cc2)CC1 (stereo not given)
(B) CS(=O)(=O)c1ccc(N2CCN(C(=O)C(c3ccc(Cl)cc3)c3cncnc3)CC2)cc1 (stereo not given)
Q: Sorting by chromatographic logD in descending order, would A or B appear first? Your answer should be the label of the entry you select.
Result: A
(A: 4.2, B: 2.6)

---

# ASSAY_EXPLANATION: DNDI: Metabolism
# Format: ADME, Microsome
# EXPERIMENTAL_CONTEXT: human, microsomes; read-out: EH
ENDPOINT: hepatic extraction ratio

INSERT INTO results (molecule, result_value) VALUES
  ('O=C(C(c1ccc(Cl)cc1)c1cccnc1)N1CCN(c2ccc(C(F)(F)F)cn2)CC1 (centres undefined)', 0.7);

(A) CS(=O)(=O)c1ccc(N2CCN(C(=O)C(c3ccc(C#N)cc3)c3cccnc3)CC2)cc1 (centres undefined)
(B) O=C(C(c1ccc(Cl)cc1)c1cncnc1)N1CCN(c2ccc(C(F)(F)F)cc2)CC1 (centres undefined)
Q: Param metric = hepatic extraction ratio; output whichever of A , B has the minimum value. Your answer should be the label of the entry you select.
Result: A

---

# ASSAY_EXPLANATION: DNDI: Solubility in 0.01M HCl at pH 2 determined by nephelometry
# Assay type: physicochemical
# EXPERIMENTAL_CONTEXT: 0.01 M HCl
ENDPOINT: solubility kinetic

INSERT INTO measurements (molecule, endpoint, result_value) VALUES
  ('N#Cc1ccc(C(C(=O)N2CCN(c3ccc(C(F)(F)F)cn3)CC2)c2cccnc2)cc1 (stereo not drawn)', 'solubility kinetic', '> 100 µg/mL'),
  ('O=C(C(c1ccc(Cl)cc1)c1cccnc1)N1CCN(c2ccc(C(F)(F)F)cn2)CC1 (stereo not drawn)', 'solubility kinetic', '> 100 µg/mL');

Q: Which solubility kinetic is listed for O=C(C(c1ccc(Cl)cc1)c1cccnc1)N1CCN(c2ccc(C(F)(F)F)nc2)CC1 (stereo not drawn) ?
Result: > 100 µg/mL

---

# ASSAY_EXPLANATION: DNDI: Lipophilicity (gLogD) at pH 7.4
# Format: physicochemical
# EXPERIMENTAL_CONTEXT: buffer
ENDPOINT: chromatographic logD

INSERT INTO results (compound, endpoint, result_value) VALUES
  ('O=C(C(c1ccc(Cl)cc1)c1cncnc1)N1CCN(c2ccc(C(F)(F)F)cn2)CC1 (centres undefined)', 'chromatographic logD', 3.9),
  ('O=C(C(c1ccc(Cl)cc1)c1cncnc1)N1CCN(c2ccc(C(F)(F)F)nc2)CC1 (centres undefined)', 'chromatographic logD', 3.3),
  ('N#Cc1ccc(C(C(=O)N2CCN(c3ccc(C(F)(F)F)nc3)CC2)c2cccnc2)cc1 (centres undefined)', 'chromatographic logD', 3),
  ('CS(=O)(=O)c1ccc(N2CCN(C(=O)C(c3ccc(Cl)cc3)c3cccnc3)CC2)cc1 (centres undefined)', 'chromatographic logD', 2.9);

Ref: ChEMBL document CHEMBL3137386
